Value source: patent US7420001B2

log10 IC50 values, listed per item
molecular target: MMP-2 (Homo sapiens, UniProt P08253); construct: purchased Oncogene Research Products (Calbiochem) PF023; assay: In-vitro fluorescence assay of MMP-2 activity; format: biochemical; conditions: recombinant human MMP-2; read-out: MMP-2 IC50
Sequence (P08253 110-660): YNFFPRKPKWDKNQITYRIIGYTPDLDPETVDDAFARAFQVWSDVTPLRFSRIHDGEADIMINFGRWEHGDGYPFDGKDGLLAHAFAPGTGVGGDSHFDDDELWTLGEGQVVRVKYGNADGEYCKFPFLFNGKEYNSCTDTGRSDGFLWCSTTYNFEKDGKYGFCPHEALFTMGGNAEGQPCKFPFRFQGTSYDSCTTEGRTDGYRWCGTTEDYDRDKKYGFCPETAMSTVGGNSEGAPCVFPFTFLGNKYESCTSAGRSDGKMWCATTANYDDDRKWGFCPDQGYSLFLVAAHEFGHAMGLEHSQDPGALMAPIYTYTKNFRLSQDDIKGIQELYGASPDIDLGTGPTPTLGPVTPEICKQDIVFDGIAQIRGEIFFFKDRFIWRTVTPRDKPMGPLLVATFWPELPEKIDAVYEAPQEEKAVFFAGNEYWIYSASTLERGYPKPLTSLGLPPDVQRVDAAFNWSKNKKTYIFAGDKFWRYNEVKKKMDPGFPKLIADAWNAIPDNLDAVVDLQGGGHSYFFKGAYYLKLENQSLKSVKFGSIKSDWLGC
A difference of one corresponds to tenfold IC50; all values are log10 with IC50 in nM.

As a guide, the following entries are already answered.
[
  {
    "compound-structure": "CC(C)[C@H](NS(=O)(=O)c1ccc(-c2ccc(NC(=O)c3nc4ccccc4o3)cc2)cc1)C(=O)O",
    "reported-property": "log10 IC50",
    "assay-value": 1.67
  },
  {
    "compound-structure": "CC(C)[C@H](NS(=O)(=O)c1ccc(-c2ccc(NC(=O)c3cc4cc(Br)ccc4o3)cc2)cc1)C(=O)O",
    "reported-property": "log10 IC50",
    "assay-value": -0.05
  },
  {
    "compound-structure": "CC(C)[C@H](NS(=O)(=O)c1ccc(-c2ccc(NC(=O)c3cc4cc(NS(=O)(=O)c5ccccc5)ccc4o3)cc2)cc1)C(=O)O",
    "reported-property": "log10 IC50",
    "assay-value": 1.28
  },
  {
    "compound-structure": "Cc1c(COc2ccc(-c3ccc(S(=O)(=O)N[C@@H](C(=O)O)C(C)C)cc3)cc2)oc2ccc(Br)c(OC(C)C)c12",
    "reported-property": "log10 IC50",
    "assay-value": 2.57
  },
  {
    "compound-structure": "Cc1c(C(=O)Nc2ccc(-c3ccc(S(=O)(=O)N[C@H](C(=O)O)C(C)C)cc3)cc2)oc2cccc(CCC(C)(C)C)c12",
    "reported-property": "log10 IC50",
    "assay-value": 3.85
  }
]

Could you now look at the following compound, please?
### Prompt Could you share what log10 IC50 was measured for `Cc1c(C(=O)Nc2ccc(-c3ccc(S(=O)(=O)N[C@H](C(=O)O)C(C)C)cc3)nc2)oc2cccc(NS(C)(=O)=O)c12` , tested on MMP-2 (Homo sapiens, UniProt P08253)?
### Response 3.88
